# target-or-system: VIM-4 (Pseudomonas aeruginosa, UniProt Q8KRJ3)
# assay-notes: Enzymatic assay for determination of inhibition constants, reporter substrate method, purified VIM-4;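 also: purified VIM-4 (1-70 nM) in 50 mM HEPES pH 7.5, reporter substrate hydrolysis rate tracked by absorbance change (nitrocefin 482 nm, imipenem or meropenem 300 nm, cefotaxime 260 nm)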
# Format: biochemical
# condition-summary: at 100 μM (maximal tested concentration)
quantity-measured: % inhibition VIM-4
Write down the value, and be sure its unit follows.

Guide cases for % inhibition VIM-4, answers given:
>>> df
                                   molecule          value
0  O=C(O)c1ccc(Cn2c(-c3ccccc3)n[nH]c2=S)cc1  80% at 100 μM
1      COc1cccc(-c2n[nH]c(=S)n2CCCC(=O)O)c1  85% at 100 μM
2        O=C(O)CCCCCn1c(-c2ccccc2)n[nH]c1=S  85% at 100 μM
3  CC(C)(C)OC(=O)NC(CCCn1c(-c2ccccc2)n[nH]c1=S)C(=O)O (stereo not drawn)  85% at 100 μM
4   COc1ccc(O)c(-c2n[nH]c(=S)n2CCCC(=O)O)c1  90% at 100 μM
5  O=C(O)c1ccccc1CCn1c(C23CC4CC(CC(C4)C2)C3)n[nH]c1=S  55% at 100 μM

Asked: Look up % inhibition VIM-4 for this molecule: `O=C(O)c1ccccc1CCn1c(-c2ccc(Cl)s2)n[nH]c1=S`
Given back: 85% at 100 μM

Asked: Next: O=C(O)C(CCCn1c(-c2ccccc2)n[nH]c1=S)N(Cc1ccccc1)Cc1ccccc1 (stereo not drawn)
Given back: 65% at 100 μM

Asked: Now the same for `O=C(O)CCCCn1c(-c2ccccc2)n[nH]c1=S`
Given back: 85% at 100 μM

* * *

# target-or-system: VIM-4 (Pseudomonas aeruginosa)
# assay-notes: Enzymatic assay for determination of inhibition constants, reporter substrate method, purified VIM-4
# Type: biochemical
# condition-summary: at 100 μM (maximal tested concentration)
Assign Criterion met to entries whose % inhibition VIM-4 meets or exceeds 80 % at 100 μM; assign Criterion not met to the rest.

Below, 3 molecules whose answers are already recorded.
>>> print(df.to_string())
                                   molecule  qualitative_label
0        Cc1ccccc1-c1n[nH]c(=S)n1CCc1ccccc1  Criterion not met
1    O=C(O)CCCn1c(-c2ccc3ccccc3n2)n[nH]c1=S      Criterion met
2  O=C(O)c1ccccc1CCn1c(-c2ccc3ccccc3c2)n[nH]c1=S  Criterion not met

Asked: Could you please find out whether `O=C(O)c1ccccc1CCn1c(-c2ccc[nH]2)n[nH]c1=S` has % inhibition VIM-4 that meets 80 % at 100 μM or exceeds it?
Given back: Criterion not met

Asked: // same read-out, input: O=C(O)CC(Cn1c(-c2ccccc2)n[nH]c1=S)c1ccc(Cl)cc1 (centres unmarked)
Given back: Criterion met

Asked: Consider next the molecule `O=C(O)c1ccccc1CCn1c(-c2ccco2)n[nH]c1=S` in the same way.
Given back: Criterion not met

Asked: Also check `CCCCCCn1c(-c2ccccc2)n[nH]c1=S`
Given back: Criterion met

Asked: What about this molecule? `S=c1[nH]nc(-c2ccccc2)n1CCCSc1ccccc1`
Given back: Criterion not met

Asked: Record: `COc1ccc(O)c(-c2n[nH]c(=S)n2CCCCC(=O)O)c1`
Given back: Criterion met

Asked: Note, next up: O=C(O)C(CCCn1c(-c2ccccc2)n[nH]c1=S)NCc1cccc(O)c1O (centres unmarked)
Given back: Criterion not met

Asked: Please answer likewise for `O=C(O)CCCn1c(-c2ccc3ccccc3c2)n[nH]c1=S`
Given back: Criterion not met

Asked: Now this one: `Cn1cccc1-c1n[nH]c(=S)n1CCCC(=O)O`
Given back: Criterion not met

Asked: Same again, this time with `O=C(O)c1ccccc1CCn1c(-c2ccc3ccccc3n2)n[nH]c1=S`
Given back: Criterion met

Asked: What about `CCCCn1c(-c2ccccc2)n[nH]c1=S` ?
Given back: Criterion not met

Asked: Cool, now O=C(O)C1CCC(Cn2c(-c3ccccc3)n[nH]c2=S)CC1 (centres unmarked)
Given back: Criterion met

Asked: Entry to check: `S=c1[nH]nc(-c2ccccc2)n1CCc1ccccc1`
Given back: Criterion not met

Asked: Another molecule to look at: `Oc1ccc(CCn2c(-c3ccccc3)n[nH]c2=S)cc1`
Given back: Criterion not met

* * *

# target-or-system: VIM-2 (Escherichia coli, UniProt Q5U7L7)
# assay-notes: Enzymatic assay for determination of inhibition constants, reporter substrate method, purified VIM-2
# Assay type: biochemical
# condition-summary: at 200 μM (maximal tested concentration)
quantity-measured: % inhibition VIM-2 (% at 200 μM)
Provide only the numeric value, understood in % at 200 μM.

                            chemical_string  result_units  value
0  S=c1[nH]nc(-c2ccccc2)n1[C@@H]1C[C@H]1c1ccccc1   % at 200 μM     70
1  O=C(O)c1ccccc1CCn1c(-c2ccc[nH]2)n[nH]c1=S   % at 200 μM     80
2        Cc1ccccc1-c1n[nH]c(=S)n1CCc1ccccc1   % at 200 μM     60
3  O=C(O)c1ccc(Cn2c(-c3ccccc3)n[nH]c2=S)cc1   % at 200 μM     80

Asked: For `COc1ccc(O)c(-c2n[nH]c(=S)n2CCCCC(=O)O)c1` , what is its reported % inhibition VIM-2?
Given back: 60

* * *

# target-or-system: VIM-1 (Pseudomonas aeruginosa, UniProt A0A0F7KYQ8)
# assay-notes: Enzymatic assay for determination of inhibition constants, reporter substrate method, purified VIM-1;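 also: initial hydrolysis rates of a reporter β-lactam (imipenem, meropenem, cefotaxime or nitrocefin) followed by absorbance change, purified enzyme at 1–70 nM in 50 mM HEPES pH 7.5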
# Assay type: biochemical
# condition-summary: isolated MBL, competitive inhibition model
quantity-measured: Ki

Study these solved cases before continuing.
                                   molecule  quantity_measured     value
0  O=C1OC(Cn2c(-c3ccccc3)n[nH]c2=S)c2ccccc21 (centres unmarked)                 Ki    < 1 µM
1   O=C(O)c1ccccc1CNn1c(-c2ccccc2)n[nH]c1=S                 Ki  > 100 µM
2  O=C(O)C(CCCn1c(-c2ccccc2)n[nH]c1=S)N(Cc1ccccc1)Cc1ccccc1 (centres unmarked)                 Ki  > 100 µM

Asked: Dear colleague, I am looking for the recorded Ki of the following molecule: `O=C(O)c1ccccc1CCn1c(-c2ccc3ccccc3c2)n[nH]c1=S`
Given back: > 100 µM

Asked: Another molecule to look at: `CN1CCN(CCOc2cccc(-c3n[nH]c(=S)n3CCc3ccccc3C(=O)O)c2)CC1`
Given back: 1 to 10 µM

* * *

Entries and their melting point

>>> df
                                   compound  quantity_measured          value
0  O=C(O)CCCn1c(-c2ccc3ccccc3n2)n[nH]c1=S [Compound 50]      melting point  238 to 239 °C

Asked: I am curious: what melting point value has been reported for O=C(O)c1ccccc1CCn1c(C23CC4CC(CC(C4)C2)C3)n[nH]c1=S [Compound 35] ?
Given back: > 250 °C

Asked: Moving on to FC(F)(F)c1cc(SCCn2c(-c3ccccc3)n[nH]c2=S)c2ccccc2n1 [Compound 28]
Given back: 184 to 185 °C

* * *

# target-or-system: VIM-2 (Escherichia coli, UniProt Q5U7L7)
# assay-notes: Enzymatic assay for determination of inhibition constants, reporter substrate method, purified VIM-2;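 also: purified VIM-2 hydrolysing a reporter substrate (imipenem, meropenem, cefotaxime or nitrocefin), reaction rate read as absorbance change, HEPES 50 mM at pH 7.5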
# Assay type: biochemical
# condition-summary: isolated MBL, competitive inhibition model; read-out: Ki VIM-2
pKi: −log10 of the molar value.
quantity-measured: pKi

Reference set, count: 3
In [3]: df
Out[3]:
                            chemical_string                          target_or_system  quantity_measured   value
0      Fc1ccccc1CSCCn1c(-c2ccccc2)n[nH]c1=S  VIM-2 (Escherichia coli, UniProt Q5U7L7)                pKi  > 6.00
1   Oc1ccc(CCn2c(-c3ccccc3)n[nH]c2=S)c(O)c1  VIM-2 (Escherichia coli, UniProt Q5U7L7)                pKi  < 4.00
2  O=[N+]([O-])c1ccccc1CSCCn1c(-c2ccccc2)n[nH]c1=S  VIM-2 (Escherichia coli, UniProt Q5U7L7)                pKi  > 6.00

Here is the next item to consider.
Asked: # input compound: `Fc1ccc(CSCCn2c(-c3ccccc3)n[nH]c2=S)c(F)c1` ; wanted: its pKi
Given back: > 6.00

* * *

# target-or-system: VIM-2 (Escherichia coli)
# assay-notes: Enzymatic assay for determination of inhibition constants, reporter substrate method, purified VIM-2
# Assay type: biochemical
# condition-summary: isolated MBL, competitive inhibition model; read-out: Ki VIM-2
pKi: −log10 of the molar value.
# pKi annotations

>>> print(df.to_string())
                                   compound         value
0  O=C(O)c1ccccc1CCn1c(-c2ccc3ccccc3n2)n[nH]c1=S [Compound 36]        < 4.00
1  CN1CCN(CCOc2cccc(-c3n[nH]c(=S)n3CCc3ccccc3C(=O)O)c2)CC1 [Compound 63]        > 6.00
2  O=C(O)C(CCCn1c(-c2ccccc2)n[nH]c1=S)N(Cc1c[nH]cn1)Cc1c[nH]cn1 (stereo not drawn) [Compound 69]        > 6.00
3  O=C(O)CCCCn1c(-c2ccc3ccccc3c2)n[nH]c1=S [Compound 30]  5.00 to 6.00
4  COc1cccc(-c2n[nH]c(=S)n2CCc2ccccc2C(=O)O)c1 [Compound 22]        > 6.00

Asked: Would you mind telling me what pKi value was observed for Cn1cccc1-c1n[nH]c(=S)n1CCc1ccccc1C(=O)O [Compound 44] ?
Given back: > 6.00
